I'd be grateful if you could share measured MIC for these entries.
- Tested on: Staphylococcus aureus OC4172
- TEST METHOD NOTES: In vitro antibacterial activity (MIC), microdilution broth method, strain A
- Assay type: cell-based
- ASSAY CONDITIONS: cation adjusted Mueller-Hinton broth, 35° C., 16-20 hours
Numbers only, in µg/mL.

Below are worked cases with known answers.
>  <GIVEN SMILES>
C[C@@H]1NCCn2cc(-c3nc4c(cc3F)c(=O)c(C(=O)O)cn4-c3ccc(F)cc3F)cc21

>  <RECORDED ENDPOINT>
MIC

>  <VALUE REPORTED>
1

$$$$
>  <GIVEN SMILES>
O=C(O)c1cn(C2CC2)c2c(OC(F)F)c(C3=C[C@H]4CN(Cc5ccccc5)CCN4C3)ccc2c1=O

>  <RECORDED ENDPOINT>
MIC

>  <VALUE REPORTED>
0.5

$$$$
>  <GIVEN SMILES>
C[C@H]1Cn2cc(-c3nc4c(cc3F)c(=O)c(C(=O)O)cn4C3CC3)cc2CN1

>  <RECORDED ENDPOINT>
MIC

>  <VALUE REPORTED>
0.06

$$$$

INPUT: Fill in MIC for record "COc1c(-c2cc3n(c2)C[C@H](C)N(C)C3)c(F)cc2c(=O)c(C(=O)O)cn(C3CC3)c12"
OUTPUT: 0.12
